Recorded Ki values for a group of compounds are listed next.
Molecular target: plasmepsin II (PMII) (Plasmodium falciparum)
Sequence (P46925 125-453): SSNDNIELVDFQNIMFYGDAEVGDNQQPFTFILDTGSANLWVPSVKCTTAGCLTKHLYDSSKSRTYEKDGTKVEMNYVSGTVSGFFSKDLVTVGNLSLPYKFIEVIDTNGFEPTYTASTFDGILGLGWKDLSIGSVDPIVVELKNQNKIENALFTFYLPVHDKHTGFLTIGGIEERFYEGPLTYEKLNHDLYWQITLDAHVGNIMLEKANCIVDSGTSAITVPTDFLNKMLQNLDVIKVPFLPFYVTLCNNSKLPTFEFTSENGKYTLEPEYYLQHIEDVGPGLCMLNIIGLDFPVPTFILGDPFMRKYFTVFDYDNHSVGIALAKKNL

Examples with answers:
- CC(C)(C)NC(=O)[C@@H]1C[C@@H]2CCCC[C@@H]2CN1C[C@@H](O)[C@H](Cc1ccccc1)NC(=O)[C@H](CC(N)=O)NC(=O)c1ccc2ccccc2n1 [SQV, Saquinavir]: 1 µM
- Cc1c(O)cccc1C(=O)N[C@@H](CSc1ccccc1)[C@H](O)CN1C[C@H]2CCCC[C@H]2C[C@H]1C(=O)NC(C)(C)C [NFV, Nelfinavir]: 1.4 µM
- CC(C)(C)NC(=O)[C@@H]1CN(Cc2cccnc2)CCN1C[C@@H](O)C[C@@H](Cc1ccccc1)C(=O)N[C@H]1c2ccccc2C[C@H]1O [IDV, Indinavir]: 2.4 µM

# Ki lookup, item Cc1cccc(C)c1OCC(=O)N[C@@H](Cc1ccccc1)[C@@H](O)C[C@H](Cc1ccccc1)NC(=O)[C@H](C(C)C)N1CCCNC1=O [LPV, Lopinavir] 0.7 µM

---

Target: plasmepsin X (PMX) (Plasmodium falciparum)
Sequence (Q8IAS0 235-573): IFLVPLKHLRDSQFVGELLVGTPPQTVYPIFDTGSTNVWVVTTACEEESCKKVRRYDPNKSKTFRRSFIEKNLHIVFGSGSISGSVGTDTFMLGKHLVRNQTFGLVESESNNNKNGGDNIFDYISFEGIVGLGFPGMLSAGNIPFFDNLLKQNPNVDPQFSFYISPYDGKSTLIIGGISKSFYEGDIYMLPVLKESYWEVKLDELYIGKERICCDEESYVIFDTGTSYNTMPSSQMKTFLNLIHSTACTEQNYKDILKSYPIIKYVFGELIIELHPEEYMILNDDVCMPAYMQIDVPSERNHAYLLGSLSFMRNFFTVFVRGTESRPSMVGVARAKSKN
Recorded pKi values for a group of compounds are listed next.
Scale note: pKi = -log10(concentration in M).

• Cc1cccc(C)c1OCC(=O)N[C@@H](Cc1ccccc1)[C@@H](O)C[C@H](Cc1ccccc1)NC(=O)[C@H](C(C)C)N1CCCNC1=O = 4.85
• Cc1c(O)cccc1C(=O)N[C@@H](CSc1ccccc1)[C@H](O)CN1C[C@H]2CCCC[C@H]2C[C@H]1C(=O)NC(C)(C)C = 4.22

Alright, here's another compound for you.
# pKi lookup, item `CC(C)(C)NC(=O)[C@@H]1C[C@@H]2CCCC[C@@H]2CN1C[C@@H](O)[C@H](Cc1ccccc1)NC(=O)[C@H](CC(N)=O)NC(=O)c1ccc2ccccc2n1` 4.36
